test system: expanded OPCs; assay: cells; details: Rattus norvegicus, 72 h, read-out: 10 µM (% DMSO), alamarBlue viability of expanded OPCs, compound at 10 µM, sheet All Tox data
I'd be grateful if you could share measured viability at 10 µM for these entries.
Value expressed in %; do not type the unit.

viability at 10 µM for "Clc1ccccc1C(c1ccccc1)(c1ccccc1)n1ccnc1" is 54.9

viability at 10 µM for "COc1cccc2c1C(=O)c1c(O)c3c(c(O)c1C2=O)C[C@@](O)(C(=O)CO)C[C@@H]3O[C@H]1C[C@H](N)[C@H](O)[C@H](C)O1" is 13.4

viability at 10 µM for "COc1cc(/C=C/c2ccc(O)cc2)cc(OC)c1" is 27.3

viability at 10 µM for "CC(=O)[C@H]1CC[C@H]2[C@@H]3CCC4=CC(=O)CC[C@]4(C)[C@H]3CC[C@]12C" is 113

viability at 10 µM for "CNC(=O)Oc1ccc2c(c1)[C@]1(C)CCN(C)[C@@H]1N2C" is 78

viability at 10 µM for NC[C@H]1CC[C@H](C(=O)Oc2ccc(CCC(=O)O)cc2)CC1 [Cetraxate] is 104

viability at 10 µM for "Clc1ccc(CO/N=C(\Cn2ccnc2)c2ccc(Cl)cc2Cl)c(Cl)c1" is 11.7

viability at 10 µM for CN(C)CCOC(c1ccccc1)c1ccccc1 [Diphenhydramine] is 62.4

viability at 10 µM for CN(C)CCC=C1c2ccccc2COc2ccccc21 [Doxepin] is 64.4

viability at 10 µM for "CC1=C(C(=O)O)N2C(=O)[C@@H](NC(=O)[C@H](N)c3ccccc3)[C@H]2SC1" is 112

viability at 10 µM for "COc1cc2nc(N3CCN(C(=O)c4ccco4)CC3)nc(N)c2cc1OC" is 13.1

viability at 10 µM for CC1COc2c(N3CCN(C)CC3)c(F)cc3c(=O)c(C(=O)O)cn1c23 (stereo not shown) is 99.5

viability at 10 µM for "C[C@]12CCC(=O)C[C@@H]1CC[C@@H]1[C@@H]2CC[C@@]2(C)[C@H]1CC[C@]2(C)O" is 120

viability at 10 µM for "Nc1ccc(O)c(C(=O)O)c1" is 87.2

viability at 10 µM for "C#C[C@]1(O)CC[C@H]2[C@@H]3CCC4=CC(=O)CC[C@@H]4[C@H]3CC[C@@]21CC" is 91.5

viability at 10 µM for "Nc1[nH]c(=O)ncc1F" is 99.4

viability at 10 µM for COc1ccccc1N1CCN(CC(O)COc2cccc3ccccc23)CC1 (stereo not shown) is 26.4

viability at 10 µM for "COc1ccc(/C=C/C(=O)Nc2ccccc2C(=O)O)cc1OC" is 85.8

viability at 10 µM for "CN(CCCN1c2ccccc2CCc2ccccc21)CC(=O)c1ccc(Cl)cc1" is 47.1

viability at 10 µM for "N[C@@H]1CON=C1O" is 97.4

viability at 10 µM for "CN1CCN(C2=Nc3ccccc3Oc3ccc(Cl)cc32)CC1" is 29

viability at 10 µM for "Cc1[nH]cnc1CN1CCc2c(c3ccccc3n2C)C1=O" is 96.3
